Reference for the values: patent US20150057261A1

target: human S1P1 receptor (Homo sapiens); construct: membranes used; assay: GTP γ35S binding assay for S1P1 activity; conditions: membranes of cells stably expressing the S1P1 receptor
Sequence (P21453 whole entry): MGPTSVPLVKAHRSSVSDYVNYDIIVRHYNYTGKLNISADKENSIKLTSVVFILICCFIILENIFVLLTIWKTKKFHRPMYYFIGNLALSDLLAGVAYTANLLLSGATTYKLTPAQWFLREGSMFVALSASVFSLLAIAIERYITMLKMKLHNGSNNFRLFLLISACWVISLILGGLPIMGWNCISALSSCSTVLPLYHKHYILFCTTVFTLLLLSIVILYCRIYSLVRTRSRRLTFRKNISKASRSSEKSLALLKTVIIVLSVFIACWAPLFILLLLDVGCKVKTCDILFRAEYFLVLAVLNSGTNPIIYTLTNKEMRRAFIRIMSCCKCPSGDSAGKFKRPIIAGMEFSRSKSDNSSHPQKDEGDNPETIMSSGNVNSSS
pEC50: −log10 of the molar value.
recorded.endpoint: pEC50

compound	tested.system	measured.number
Cc1ccc(CC(CCCCc2ccc(CN3CC(C(=O)O)C3)cc2)c2cc(F)cc(F)c2)cc1C (stereo not drawn)	human S1P1 receptor (Homo sapiens)	8.13
Cc1ccc(CC(CCCc2ccc(CN3CC(C(=O)O)C3)cc2)c2cccc(Cl)c2)cc1C (stereo not drawn)	human S1P1 receptor (Homo sapiens)	7.77
Cc1ccc(CC(CCCCc2ccc(CN3CC(C(=O)O)C3)cc2)c2cccc(Cl)c2)cc1C (stereo not drawn)	human S1P1 receptor (Homo sapiens)	7.19
